Assay: Inhibition of ADP-induced platelet aggregation in canine platelet-rich plasma
Sorting guide: entries reporting IC50 beneath 0.4 µM go in the T pile, the rest go in the F pile.

- query smiles: "C[C@H](NC(=O)[C@H](CS)NC(=O)[C@@H]1CCCN1C(=O)[C@H](CO)NC(=O)[C@H](CC(=O)O)NC(=O)CNC(=O)[C@H](CCCNC(=N)N)NC(=O)CNC(=O)[C@@H](NC(=O)CN)C(C)(C)S)C(=O)O"
  category: "F"
- query smiles: "N=C(N)NCCC[C@@H]1NC(=O)[C@@H]2CCCN2C(=O)[C@H]2CCCN2C(=O)CNC(=O)[C@H](CC(=O)O)NC(=O)CNC1=O"
  category: "F"
- query smiles: "CC(=O)N[C@@H](CS)C(=O)N(C)[C@@H](CCCN=C(N)N)C(=O)NCC(=O)N[C@@H](CC(=O)O)C(=O)N[C@H](C(N)=O)C(C)(C)S"
  category: "T"
- query smiles: "CN(C(=O)c1ccccc1S)[C@@H](CCCNC(=N)N)C(=O)NCC(=O)N[C@@H](CC(=O)O)C(=O)Nc1ccccc1S"
  category: "T"
- query smiles: "CC(=O)N[C@@H](CS)C(=O)N[C@@H](CCCN=C(N)N)C(=O)NCC(=O)N[C@@H](CC(=O)O)C(=O)N[C@@H](C(N)=O)C(C)(C)S"
  category: "F"
- query smiles: "CC(=O)N[C@@H](CS)C(=O)N[C@@H](CCCNC(=N)N)C(=O)NCC(=O)N[C@@H](CC(=O)O)C(=O)N[C@H](C(N)=O)C(C)(C)S"
  category: "F"

---

Assay: Inhibition of ADP-induced platelet aggregation in canine platelet-rich plasma
Recorded IC50 for the following compounds
recorded metric: IC50 (µM)

- query smiles: "CC(=O)N[C@@H](CS)C(=O)N[C@H](CCCN=C(N)N)C(=O)NCC(=O)N[C@@H](CC(=O)O)C(=O)N[C@H](C(N)=O)C(C)(C)S"
  recorded metric: "IC50"
  meas value: 4.1
- query smiles: "CC(=O)N[C@@H](CS)C(=O)N(C)[C@H](CCCN=C(N)N)C(=O)NCC(=O)N[C@@H](CC(=O)O)C(=O)N[C@H](C(N)=O)C(C)(C)S"
  recorded metric: "IC50"
  meas value: 1.79
- query smiles: "N=C(N)NCCC[C@@H]1NC(=O)[C@@H]2CCCN2C(=O)CNC(=O)[C@H]2CCCN2C(=O)[C@H](CC(=O)O)NC(=O)CNC1=O"
  recorded metric: "IC50"
  meas value: 76.6
- query smiles: "N=C(N)NCCC[C@@H]1NC(=O)[C@@H]2CCCN2C(=O)[C@@H](Cc2ccccc2)NC(=O)CNC(=O)[C@H](CC(=O)O)NC(=O)CNC1=O"
  recorded metric: "IC50"
  meas value: 17.7
